- Measurement Notes: inhibition of 3D7 malaria parasite growth – strain 3D7 (AID 2306);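 note: 0% = DMSO wells and 100% = chloroquine plus artemisinin control wells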
- Condition Notes: P. falciparum 3D7 erythrocytic growth, LDH absorbance, 72 h; at 2 µM; stronger effect = higher value
Property Name: growth inhibition (%)

>>> result_number("CC(CN(C)C)C(=O)Nc1ccc(-c2ccc(-c3nc4ccccc4[nH]3)s2)cc1 (stereo not given)")
100
>>> result_number("O=S(=O)(c1cccc(Br)c1)N1CCCCC(c2ccc(C(F)(F)F)cc2)=N1")
91
>>> result_number("CN1CCCN(Cc2cccc(-c3ccc(NC(=O)c4cccc(Cl)c4)cc3)c2)CC1")
90
>>> result_number("CN1CCC(C(=O)Nc2ccc(-c3ccc(-c4nc5ccccc5[nH]4)s3)cc2)CC1")
99
>>> result_number("CC(=O)Nc1ccc(-c2nc3ccc(-c4nc5ccc(NC(C)=O)cc5[nH]4)cc3[nH]2)cc1")
99
>>> result_number("CCOC(=O)c1ccc(COc2ccc(C)nc2)cc1")
100
>>> result_number("Cc1ccc(N2C(=O)C3C(C2=O)[C@]2(c4ccccc4)C(=O)[C@@]3(c3ccccc3)C(c3ccccc3)=C2c2ccccc2)c(C)c1 (stereo not given in full)")
96
>>> result_number("CCOC(=O)c1cc(C(=O)OC)c2ccccn12")
97
>>> result_number("CN(C)C1CCN(CC#Cc2cc3ncnc(Nc4ccc(OCc5cccc(F)c5)c(Cl)c4)c3s2)CC1")
85
>>> result_number("CC(C)COc1ccc(Cl)cc1Cc1ccc(-c2nc3c(F)c(F)ccc3[nH]2)o1")
94
